- Tested on: EMT6 cells
- Method Description: MTT cell viability assay
- Assay type: cell-based
- Condition Context: Mus musculus, 48 h
Recorded Metric: pIC50
Interpret pIC50 as the negative base-10 log of the concentration measured in mol/L.

Which value of pIC50 has been reported for O=C1OCC2=C1C(c1cccc(F)c1)c1cc3c(cc1N2CCO)OCO3 (stereo not shown) in the records? 5.82

---

- Method Description: Pharmacokinetics study
- Assay type: in vivo, mouse
- Condition Context: mouse; 20 mg/kg oral, female C57BL/6J mice, plasma
Recorded Metric: Tmax (min)
Report as a plain number; the unit min is understood.

Which value of Tmax has been reported for O=C1OCC2=C1C(c1cccc(F)c1)c1cc3c(cc1N2CCO)OCO3 (stereo not shown) in the records? 15
